Target: VHL (VBC complex) (Homo sapiens, UniProt P40337)
Construct: equimolar complex of pVHL54-213, eloB1-104 and; made in house; host or cells: E. coli
Sequence (P40337 54-213): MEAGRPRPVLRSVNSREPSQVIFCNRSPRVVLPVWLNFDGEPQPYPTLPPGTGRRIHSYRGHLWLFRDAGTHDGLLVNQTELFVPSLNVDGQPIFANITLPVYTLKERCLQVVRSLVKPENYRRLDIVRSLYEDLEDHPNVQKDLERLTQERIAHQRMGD
Sequence (Q15370 1-104 partner limits assumed): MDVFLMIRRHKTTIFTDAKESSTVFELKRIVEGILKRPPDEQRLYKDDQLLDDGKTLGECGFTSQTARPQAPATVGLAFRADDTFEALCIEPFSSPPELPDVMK
Sequence (Q15369 17-112 partner limits assumed): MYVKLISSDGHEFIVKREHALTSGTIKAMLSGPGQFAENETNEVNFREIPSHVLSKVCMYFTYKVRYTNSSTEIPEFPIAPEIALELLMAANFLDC
Assay: 19F CPMG NMR transverse relaxation rate (R2) and R2 contrast (C2) of spy molecule with and without protein
Type: binding
Conditions: Spy molecule 100 μM, no protein
Protocol: Due to the large CSA of fluorine and the significant differences in the fluorine isotropic chemical shift (δF) between the free and bound states, the transverse relaxation rate (R2) is a well-established sensitive parameter to detect ligand binding.[4] […] The R2 values of the CF3 peak of each compound in the absence and in the presence of protein were determined by performing multiple ^19F CPMG experiments varying the CPMG filter (Fig. 2a). […]
readout.name: R2 (s⁻¹)
Respond with the bare value in s⁻¹.

In the examples that follow, each entry is paired with its recorded R2.
| molecule | readout.name | unit | observed.result |
| --- | --- | --- | --- |
| CC(=O)NC(C(=O)N1CC(O)CC1C(=O)NCc1ccc(-c2scnc2C)cc1C(F)(F)F)C(C)(C)C (stereo not shown) [Compound 16] | R2 | s⁻¹ | 1.805 |
| CC(=O)N1C[C@H](O)C[C@H]1C(=O)NCc1ccc(-c2scnc2C)c(C(F)(F)F)c1 [Compound 6] | R2 | s⁻¹ | 1.096 |
| CC(=O)NC(C(=O)N1CC(O)CC1C(=O)NCc1ccc(-c2scnc2C)c(C(F)(F)F)c1)C(C)(C)C (stereo not shown) [Compound 8] | R2 | s⁻¹ | 1.349 |

Req: State R2 on VHL (VBC complex) (Homo sapiens, UniProt P40337). Entry: O=C(NCc1ccc(Br)cc1)C1CC(O)CN1C(=O)CC(F)(F)F (stereo not shown) [Compound 19]
Resp: 1.526

###

Listed next: entries and their corresponding R2.
Target: VHL (VBC complex) (Homo sapiens)
Construct: equimolar complex of pVHL54-213, eloB1-104 and; made in house; host or cells: E. coli
Assay: 19F CPMG NMR transverse relaxation rate (R2) and R2 contrast (C2) of spy molecule with and without protein
Format: binding
Conditions: Spy molecule 100 μM, no protein
Description: Due to the large CSA of fluorine and the significant differences in the fluorine isotropic chemical shift (δF) between the free and bound states, the transverse relaxation rate (R2) is a well-established sensitive parameter to detect ligand binding.[4] […] The R2 values of the CF3 peak of each compound in the absence and in the presence of protein were determined by performing multiple ^19F CPMG experiments varying the CPMG filter (Fig. 2a). […]
Include the unit after the number when you answer.

| compound | R2 |
| --- | --- |
| Cc1ncsc1-c1ccc(CNC(=O)[C@@H]2C[C@@H](O)CN2C(=O)CC(C)(C)C)c(C(F)(F)F)c1 [Compound 15] | 1.545 ± 0.035 s⁻¹ |
| CC(C)(C)CC(=O)N1C[C@H](O)C[C@H]1C(=O)NCc1ccc(Br)c(C(F)(F)F)c1 [Compound 3] | 1.326 ± 0.025 s⁻¹ |
| CC(=O)N1C[C@H](O)C[C@H]1C(=O)NCc1ccc(Br)c(C(F)(F)F)c1 [Compound 2] | 1.170 ± 0.019 s⁻¹ |

Req: Complete the entry with R2 for CC(=O)NC(C(=O)N1CC(O)CC1C(=O)NCc1ccc(Br)cc1C(F)(F)F)C(C)(C)C (centres unmarked) [Compound 12]
Resp: 1.512 ± 0.029 s⁻¹

Req: Complete the entry with R2 for CC(=O)NC(C(=O)N1CC(O)CC1C(=O)NCc1ccc(Br)c(C(F)(F)F)c1)C(C)(C)C (centres unmarked) [Compound 4]
Resp: 1.175 ± 0.027 s⁻¹

Req: Complete the entry with R2 for O=C(NCc1ccc(Br)c(C(F)(F)F)c1)[C@@H]1C[C@@H](O)CN1 [Compound 1]
Resp: 1.069 ± 0.028 s⁻¹

Req: Complete the entry with R2 for O=C(NCc1ccc(Br)cc1C(F)(F)F)[C@@H]1C[C@@H](O)CN1 [Compound 9]
Resp: 1.268 ± 0.026 s⁻¹

Req: Complete the entry with R2 for CC(C)(C)CC(=O)N1C[C@H](O)C[C@H]1C(=O)NCc1ccc(Br)cc1C(F)(F)F [Compound 11]
Resp: 1.427 ± 0.033 s⁻¹
